System: 299254-011-R-J1-PDC complex spheroid viability
experimental_details: Anticancer human tumor 299254-011-R-J1-PDC patient-derived melanoma cell line growth inhibition [POLQ]
experimental_context: curve of first compound; second compound 1 µM

# compound, measured_on, IC50
measured = [
    ("CC(C)n1c(=O)n(C)c2cnc3cc(F)c(-c4ccc(OCCCN5CCCCC5)nc4)cc3c21 + COC1C(OC(N)=O)C(O)C(Oc2ccc3c(O)c(NC(=O)c4ccc(O)c(CC=C(C)C)c4)c(=O)oc3c2C)OC1(C)C", "299254-011-R-J1-PDC complex spheroid viability", "> 10 µM"),
    ("CC1COCCN1c1cc(C2(S(C)(=N)=O)CC2)nc(-c2ccnc3[nH]ccc23)n1 (stereo not drawn) + COC1C(OC(N)=O)C(O)C(Oc2ccc3c(O)c(NC(=O)c4ccc(O)c(CC=C(C)C)c4)c(=O)oc3c2C)OC1(C)C", "299254-011-R-J1-PDC complex spheroid viability", "5.46 µM"),
    ("Cn1ncnc1[C@H]1c2n[nH]c(=O)c3cc(F)cc(c23)N[C@@H]1c1ccc(F)cc1 + Cc1cccc(N(C)C(=O)C2C(O)CCN2c2nc(C)cc(C(F)(F)F)c2C#N)c1", "299254-011-R-J1-PDC complex spheroid viability", "> 0.1 µM"),
]

* * *

Below: a set of entries, each annotated with reported viability, T/C.
Tested on: 299254-011-R-J1-PDC complex spheroid viability
experimental_details: Anticancer human tumor 299254-011-R-J1-PDC cell line growth inhibition [POLQ];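 also: spheroids exposed to drugs for one week before measurement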;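 as to viability, T/C: percent viability relative to DMSO vehicle control taken as 100%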
experimental_context: second compound 1 µM; first compound 0.1 µM; stronger effect = lower value

# compound, viability, T/C, %
measured = [
    ("C=CCn1c(=O)c2cnc(Nc3ccc(N4CCN(C)CC4)cc3)nc2n1-c1cccc(C(C)(C)O)n1 + COC1C(OC(N)=O)C(O)C(Oc2ccc3c(O)c(NC(=O)c4ccc(O)c(CC=C(C)C)c4)c(=O)oc3c2C)OC1(C)C", 102),
    ("CCCS(=O)(=O)Nc1ccc(F)c(C(=O)c2c[nH]c3ncc(-c4ccc(Cl)cc4)cc23)c1F + Cc1cccc(N(C)C(=O)C2C(O)CCN2c2nc(C)cc(C(F)(F)F)c2C#N)c1", 103),
    ("CC(C)n1c(=O)n(C)c2cnc3cc(F)c(-c4ccc(OCCCN5CCCCC5)nc4)cc3c21 + COC1C(OC(N)=O)C(O)C(Oc2ccc3c(O)c(NC(=O)c4ccc(O)c(CC=C(C)C)c4)c(=O)oc3c2C)OC1(C)C", 111),
    ("CC1COCCN1c1cc(C2(O)CC3CCC(C2)O3)c2cnn(-c3ccn[nH]3)c2n1 (stereo not drawn) + Nc1ccc(C#CCN(C(=O)Cc2ncc(C(F)(F)F)cc2C(F)(F)F)c2ccc(F)cc2)nn1", 55.7),
    ("O=C(Nc1ccc(O)c(NS(=O)(=O)c2ccc(F)cc2)c1)c1ccc(-c2ccccc2)cc1 + Nc1ccc(C#CCN(C(=O)Cc2ncc(C(F)(F)F)cc2C(F)(F)F)c2ccc(F)cc2)nn1", 94.5),
    ("CC1COCCN1c1cc(C2(S(C)(=N)=O)CC2)nc(-c2ccnc3[nH]ccc23)n1 (stereo not drawn) + COC1C(OC(N)=O)C(O)C(Oc2ccc3c(O)c(NC(=O)c4ccc(O)c(CC=C(C)C)c4)c(=O)oc3c2C)OC1(C)C", 122),
    ("CC1COCCN1c1cc(C2(O)CC3CCC(C2)O3)c2cnn(-c3ccn[nH]3)c2n1 (stereo not drawn) + Cc1cccc(N(C)C(=O)C2C(O)CCN2c2nc(C)cc(C(F)(F)F)c2C#N)c1", 56.8),
    ("C=CC(=O)N1CCN(c2nc(=O)n(-c3c(C)ccnc3C(C)C)c3nc(-c4c(O)cccc4F)c(F)cc23)C(C)C1 (stereo not drawn) + Nc1ccc(C#CCN(C(=O)Cc2ncc(C(F)(F)F)cc2C(F)(F)F)c2ccc(F)cc2)nn1", 78.1),
]
